measured-target: 5-hydroxytryptamine receptor 2A (Homo sapiens) (UniProt P28223)
Sequence (P28223 whole entry, looked up): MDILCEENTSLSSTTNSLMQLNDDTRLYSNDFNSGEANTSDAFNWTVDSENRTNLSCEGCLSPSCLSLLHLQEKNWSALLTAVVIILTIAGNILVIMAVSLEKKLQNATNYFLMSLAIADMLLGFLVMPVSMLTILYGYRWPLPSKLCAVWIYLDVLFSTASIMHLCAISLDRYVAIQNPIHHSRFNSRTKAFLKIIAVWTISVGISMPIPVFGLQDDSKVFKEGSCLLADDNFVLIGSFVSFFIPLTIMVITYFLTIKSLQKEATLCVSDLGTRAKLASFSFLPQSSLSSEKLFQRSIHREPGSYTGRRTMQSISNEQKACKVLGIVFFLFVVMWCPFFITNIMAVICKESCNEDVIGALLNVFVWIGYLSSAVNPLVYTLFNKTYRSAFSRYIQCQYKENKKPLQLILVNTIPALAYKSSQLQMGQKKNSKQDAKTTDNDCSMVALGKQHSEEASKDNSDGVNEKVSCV
experiment-notes: 5-hydroxytryptamine receptor 2A (HTR2A) small molecule agonists, cell-based qHTS assay (AID 1963587); further: nearly all actives have a fitted effect of over 30% in size
settings: HTR2A-CHO cells, calcium flux fluorescence, agonist mode; series mostly up to 76.8 µM
Inconclusive results are not listed. Activity calls are given as the source filed them. The call rests on the fitted dose curve.
measured-quantity: outcome

Please review the entries below; each comes with its answer.
COC(=O)c1cccc(C(=O)OC)c1 : inactive
Cc1ccc2ncccc2c1 : inactive
CCCCNC(=O)NS(=O)(=O)c1ccc(N)cc1 : inactive
CC1CCC2CC1C2(C)C (configuration not stated) : inactive
OC[C@H]1O[C@H](O[C@]2(CCl)O[C@H](CCl)[C@@H](O)[C@@H]2O)[C@H](O)[C@@H](O)[C@H]1Cl : inactive

Report outcome for `Cc1ccc(Cl)cc1` please.
inactive

Any idea what outcome was measured for `COCCOC(=O)c1ccccc1C(=O)OCCOC` ?
inactive

###

experiment-notes: cAMP Responsive Elements (CRE) small molecule agonists, cell-based qHTS assay (AID 1963590)
settings: CRE-bla HEK293T, beta-lactamase FRET ratio, 3 h; series mostly up to 92.4 µM
Results filed as inconclusive are left out. Active and inactive are the calls of the source. Calls follow the shape of the full dose curve.
I would appreciate it if you answered using one of these outcomes: yes = active, no = inactive

C=C(CC(=O)O)C(=O)O : no

Dear all, I need the recorded test outcome for `CCC1(c2ccccc2)C(=O)NCNC1=O` , thank you.
no

Fill in: this test's call for CCC(O)OCCCOC (stereo unspecified) is ___
no

Recorded call for `C[C@]12CC[C@@H]3c4ccc(O)cc4CC[C@H]3[C@@H]1CC[C@@H]2O` ?
no

What outcome does the record of this test show for `C[C@]12CCC(=O)C=C1CC[C@@H]1[C@@H]2C(=O)C[C@@]2(C)[C@H]1CC[C@]2(O)C(=O)CO` ?
no

Answer briefly: the call reported for `COc1ccc(OC)cc1` in this assay.
no

Any idea what this test logged for `C/C=C/C=C/C(=O)O` ?
no

Outcome logged for CC(=O)CC(c1ccccc1)c1c(O)c2ccccc2oc1=O (stereo unspecified) in this assay:
no

Give the logged outcome of this assay for the following compound: `CCCCCCCCCCCCCO`
no

Dear all, I need the recorded test outcome for `Cc1ccccc1C=O` , thank you.
no

Can you look up the reported call for `C=CCNC(N)=S` for me?
no

Hey, what did the test say about `COC(=O)c1ccccc1` ?
no

What was the test verdict on `CC(=O)c1ccccn1` ?
no

Status in this test for O=C(O)CC(C(=O)O)C(CC(=O)O)C(=O)O (stereo unspecified) ?
no

Outcome logged for `NCCCCCCN` in this assay:
no

Which outcome did this test record for the compound `O=C(O)Cn1c(=O)n(Cc2ccc(Br)cc2F)c(=O)c2ccc(Cl)cc21` ?
no

Record request — test call for `C#C[C@]1(O)CC[C@H]2[C@@H]3CCC4=Cc5oncc5C[C@]4(C)[C@H]3CC[C@@]21C`
yes

Would you mind telling me which call this test gave `COc1ccc(NC(C)=O)cc1N` ?
no

What did this assay record as the result for `OCCO` ?
no

What did the test return for `CCCCCCC(C)(C)S` ?
no

// return assay outcome for `CCCCCCCCCCCCCCCC(=O)O`
no

###

measured-target: Muscarinic acetylcholine receptor M1 (Homo sapiens)
experiment-notes: Cholinergic receptor muscarinic 1 (CHRM1) small molecule antagonists, cell-based qHTS assay (AID 1963588); further: nearly all actives have a fitted effect of over 40% in size
settings: CHRM1-CHO antagonist mode, calcium flux fluorescence; series mostly up to 61.5 µM
Results filed as inconclusive are left out. Activity calls are given as the source filed them. Calls follow the shape of the full dose curve.
Outcomes you can answer with include only these: active, inactive

Assay outcome for `c1ccc2cc3ccccc3cc2c1` : what was it?
inactive

Each compound tested received a call. Report the one for `CCCCCCCCCCN` .
inactive

Could you kindly confirm the outcome this assay logged for `CCOCC(=O)O` ?
inactive

Answer briefly: the call reported for `CC(C)CC(=O)CC(C)C` in this assay.
inactive

Returns: the outcome recorded for `CCOC(=O)NNc1nncc2ccccc12` in this assay.
inactive
